- Tested on: K. aerogenes ATCC 13048
- Format: cell-based, Klebsiella aerogenes
- experimental context: ATCC 13048, 18 h
Residues, ends and D or L forms follow the SMILES beside them.
endpoint label: MIC E2 (µg/mL)
Response body: numeric value in µg/mL, unit text excluded.

# input Find the recorded MIC E2 belonging to CCCCCCCCCCCCCC(=O)N[C@@H](Cc1ccccc1)C(=O)N[C@@H](CCCNC(=N)N)C(=O)N[C@@H](CCCNC(=N)N)C(N)=O [compound 26, C14-FRR-NH2] (HELM PEPTIDE1{[CCCCCCCCCCCCCC(=O)[*:2]].F.R.R.[am]}$$$$V2.0) and report it.
# output 64

# input Find the recorded MIC E2 belonging to CCCCCCCCCCCCCC(=O)N1CCC[C@H]1C(=O)N[C@@H](CCCNC(=N)N)C(=O)N[C@@H](CCCNC(=N)N)C(N)=O [compound 74, C14-PRR-NH2] and report it.
# output 256

# input Find the recorded MIC E2 belonging to CCCCCCCCCCCC(=O)N[C@@H](CCSC)C(=O)N[C@@H](CCCNC(=N)N)C(=O)N[C@@H](CCCNC(=N)N)C(N)=O [compound 49, C12-MRR-NH2] (HELM PEPTIDE1{[CCCCCCCCCCCC(=O)[*:2]].M.R.R.[am]}$$$$V2.0) and report it.
# output 256

# input Find the recorded MIC E2 belonging to CCCCCCCCCCCCCC(=O)NCC(=O)N[C@@H](CCCNC(=N)N)C(=O)N[C@@H](CCCNC(=N)N)C(N)=O [compound 30, C14-GRR-NH2] and report it.
# output 256

# input Find the recorded MIC E2 belonging to CCCCCCCCCCCCCC(=O)N[C@@H](CCCC)C(=O)N[C@@H](CCCNC(=N)N)C(=O)N[C@@H](CCCNC(=N)N)C(N)=O [compound 66, C14-NleRR-NH2] (HELM PEPTIDE1{[CCCCCCCCCCCCCC(=O)[*:2]].[Nle].R.R.[am]}$$$$V2.0) and report it.
# output 32

# input Find the recorded MIC E2 belonging to CCCCCCCCCCCCCC(=O)N[C@@H](Cc1c[nH]cn1)C(=O)N[C@@H](CCCNC(=N)N)C(=O)N[C@@H](CCCNC(=N)N)C(N)=O [compound 34, C14-HRR-NH2] (HELM PEPTIDE1{[CCCCCCCCCCCCCC(=O)[*:2]].H.R.R.[am]}$$$$V2.0) and report it.
# output 256

# input Find the recorded MIC E2 belonging to CCCCCCCCCCCC(=O)N[C@@H](Cc1c[nH]c2ccccc12)C(=O)N[C@@H](CCCNC(=N)N)C(=O)N[C@@H](CCCNC(=N)N)C(N)=O [compound 97, C12-WRR-NH2] (HELM PEPTIDE1{[CCCCCCCCCCCC(=O)[*:2]].W.R.R.[am]}$$$$V2.0) and report it.
# output 256

# input Find the recorded MIC E2 belonging to CCCCCCCCCCCCCC(=O)N[C@H](C(=O)N[C@@H](CCCNC(=N)N)C(=O)N[C@@H](CCCNC(=N)N)C(N)=O)[C@@H](C)CC [compound 38, C14-IRR-NH2] (HELM PEPTIDE1{[CCCCCCCCCCCCCC(=O)[*:2]].I.R.R.[am]}$$$$V2.0) and report it.
# output 64

Next:
# input Find the recorded MIC E2 belonging to CCCCCCCCCCCC(=O)N[C@@H](CCC)C(=O)N[C@@H](CCCNC(=N)N)C(=O)N[C@@H](CCCNC(=N)N)C(N)=O [compound 69, C12-NvaRR-NH2] (HELM PEPTIDE1{[CCCCCCCCCCCC(=O)[*:2]].[Nva].R.R.[am]}$$$$V2.0) and report it.
# output 256

# input Find the recorded MIC E2 belonging to CCCCCCCCCCCC(=O)N[C@H](C(=O)N[C@@H](CCCNC(=N)N)C(=O)N[C@@H](CCCNC(=N)N)C(N)=O)[C@@H](C)CC [compound 37, C12-IRR-NH2] (HELM PEPTIDE1{[CCCCCCCCCCCC(=O)[*:2]].I.R.R.[am]}$$$$V2.0) and report it.
# output 256

# input Find the recorded MIC E2 belonging to CCCCCCCCCCCCCC(=O)N[C@H](C(=O)N[C@@H](CCCNC(=N)N)C(=O)N[C@@H](CCCNC(=N)N)C(N)=O)[C@@H](C)O [compound 90, C14-TRR-NH2] (HELM PEPTIDE1{[CCCCCCCCCCCCCC(=O)[*:2]].T.R.R.[am]}$$$$V2.0) and report it.
# output 128

# input Find the recorded MIC E2 belonging to CCCCCCCCCCCCCC(=O)N[C@@H](CCCNC(=N)N)C(=O)N[C@@H](CCCNC(=N)N)C(=O)N[C@@H](CCCNC(=N)N)C(N)=O [compound 82, C14-RRR-NH2] (HELM PEPTIDE1{[CCCCCCCCCCCCCC(=O)[*:2]].R.R.R.[am]}$$$$V2.0) and report it.
# output 128

# input Find the recorded MIC E2 belonging to CCCCCCCCCCCCCC(=O)N[C@@H](CCCCN)C(=O)N[C@@H](CCCNC(=N)N)C(=O)N[C@@H](CCCNC(=N)N)C(N)=O [compound 42, C14-KRR-NH2] (HELM PEPTIDE1{[CCCCCCCCCCCCCC(=O)[*:2]].K.R.R.[am]}$$$$V2.0) and report it.
# output 64

From: paper PMC7024302
